Tested on: HL-60(TB) leukemia
MEASUREMENT DESCRIPTION: NCI tumour cell line growth inhibition, 48 h
MEASUREMENT NAME: TGI (µM)
Report only the number, with the unit µM understood.

What measured TGI goes with O=C(Nc1cccc(Cl)c1)Nc1nccs1 ? 89.2

Also need CCOC(=O)/C=C\c1c(Cl)n(-c2ccccc2)c(=O)n(-c2ccccc2)c1=O , thanks. 23.4

Cc1nc2c(o1)C(=O)c1ccccc1C2=Nc1ccccc1 , same question. 11.6

What about this compound? COc1ccc(Oc2ccc3cc4c(cc3c2O)OCO4)c2cc(C)oc12 83.9

// query: O=C(N/N=C(\CN1CCN(c2cc3[nH]cc(C(=O)O)c(=O)c3cc2F)CC1)c1ccc(Cl)cc1)c1ccncc1 43.3

// next record N#CC1=C(N)Oc2c(ccc3ccccc23)C1c1cccs1 (stereo unspecified) 0.0793

Same lookup for CCOC(=O)C1=C(OC(OCC)C(C)[Se]c2ccccc2)CCC1 (stereo unspecified) , please. 21.2

Please answer likewise for Cc1cc(N(CCNc2ccnc3cc(Cl)ccc23)Cc2cccs2)nc(Cl)n1 3.84

---

System: MDA-N
MEASUREMENT DESCRIPTION: NCI tumour cell line growth inhibition, 48 h
Where a SMILES comes first, the peptide text is derived from it. [ ]: non-standard residue; d: D form. Ac5c = NC1(C(=O)O)CCCC1
MEASUREMENT NAME: TGI

Which TGI value is on record for CC(=N\O)/C(C)=N/O.CC(=N\O)/C(C)=N/O.CC(=N\O)/C(C)=N/O.CC(=N\O)/C(C)=N/O.[CH3-].[CH3-].[Co].[Co] ? > 100 µM

Please do the same for CCOC(=O)/C(=C\NCc1ccc2c(c1)OCO2)c1nc2ccccc2[nH]1 as well. > 100 µM

Next molecule: C/C=C/[C@@H](C(=O)OC)N1C(=O)c2ccccc2[C@H]1O > 100 µM

Entry CSC(Cc1ccc2c(c1)Sc1ccccc1O2)=[N+]1CCOCC1 please > 100 µM

Moving on to COC(=O)C1(NC(=O)C(C)NC(=O)C(CCCCN)NC(=O)C(CC(C)C)NC(C)=O)CCCC1 (centres undefined) (Ac-LKA[Ac5c]-OMe; configuration not given here) > 100 µM

Entry to check: COc1cc([C@@H]2C3C(=O)c4ccccc4C3[C@@H](c3cc(OC)c(OC)c(OC)c3)C23Cc2ccccc2C3=O)cc(OC)c1OC (some centres undefined) > 100 µM

Quick one: COC(=O)C#Cc1cccc(OC)c1OC > 100 µM

Here is the next molecule: CN1CCN(C(=S)N(C(=O)c2ccco2)C2CCCCC2)CC1 > 100 µM

Field entry: CN(C(=O)CCC(=O)O)c1ccccc1C(=O)O > 100 µM

Again, but for CCc1cccc(CC)c1NC(=O)C(C#N)C1=C(Cl)C(=O)c2ccccc2C1=O (centres undefined) 30.3 µM

One more molecule: COc1cc2c[n+](C)c3c4cc(OC)c(OC)cc4c(OCc4ccccc4)cc3c2cc1OC 2.53 µM

Then what about the molecule ClC1=C(Cl)C(Cl)(Cl)SS1 ? > 10 µM

Here is the next molecule: O=C(Nc1ccc(Cl)cc1)c1cc2c(cc1Cl)Sc1nccn1S2(=O)=O > 100 µM

// repeat for COc1cc(/C=C2\N=C(c3ccccc3)N(c3nc4ccc(Sc5ccccc5)cc4[nH]3)C2=O)ccc1O and report 28.5 µM

Another molecule to look at: CCOC(=O)/C(C#N)=C/c1ccc(SCc2ccco2)c([N+](=O)[O-])c1 > 100 µM

Repeat with Nc1nc(N)c2c(Cl)c(CNc3ccc(C(=O)NC(CC(=O)O)C(=O)O)cc3)ccc2n1 (centres undefined) > 100 µM

Please answer likewise for O=C(Nc1ccc2ncccc2c1)c1cc2c(cc1Cl)Sc1nccn1S2(=O)=O 18.3 µM

// next record CCCCOC(=O)C(=O)C(CC(CC)C(=O)c1ccccc1)C(=O)C=C(C)C (centres undefined) > 100 µM

Follow-up item: C=CCOC(=O)C[C@H](NC(=O)[C@H](Cc1ccc(O)cc1)NCC(F)(F)F)C(=O)OCC=C > 100 µM

Same lookup for CN(C)CCNc1ccc(NCC[N+](C)(C)Cc2ccc([N+](=O)[O-])cc2)c2c1C(=O)c1ccccc1C2=O , please. > 25 µM

Moving on to Cc1cc(C)n(C(=O)CSc2nc3ccc(I)cc3c(=O)n2Cc2ccccc2)n1 > 100 µM

Now try O=C(Nc1ccccc1)c1cc(S(=O)(=O)n2cc[nH]c2=O)c(S)cc1Cl . > 100 µM

Would you mind doing CC1(C)CN=C(Nc2ccc(F)cc2)S1 as well? > 100 µM

One more molecule: CCCNC(=S)N=Nc1c(O)[nH]c2ccccc12 > 100 µM

Can you handle C/C(=N\NC(=O)c1ccncc1)c1ccccc1Cl next? > 100 µM

Try this molecule too: Cc1cc(Cc2cc(Cc3cc(C)cc(C(C)(C)C)c3O)c(C)cc2C)c(O)c(C(C)(C)C)c1 35 µM

Then COc1ccc(Nc2nc3cc(C(F)(F)F)ccc3nc2C(=O)O)cc1 ? > 100 µM

Now the molecule Nc1ccc(I)cn1 > 100 µM

// same read-out, input: COc1ccc(CCCNC(=O)Cc2cc(OC)c(OC)cc2CO)cc1OC > 100 µM

Another molecule: C#CCOC(=O)C(N)C(C)O (centres undefined) > 100 µM

Could you do the same for CCOC(=O)c1cn2c(n1)sc1cc(C)c(C)cc12 , please? 22 µM

Would you mind doing Cc1cc(O)c(/C=N/c2nc(-c3ccc([N+](=O)[O-])cc3)cs2)c(=O)o1 as well? > 100 µM

Next: c1ccc2c(c1)CCN2CCN1CCc2ccccc21 > 10 µM

Consider next the molecule Cc1cc2c3ccccc3nc2c2cc[nH]c(C)c12 in the same way. 3.3 µM

Would you kindly repeat that for O=C1O/C(=C\c2ccc(O)c(Br)c2)C(c2ccc(O)c(Cl)c2)=C1Br ? 64.9 µM

Can you check CCOC(=O)c1ccc(NC(=O)O/N=C(/Cl)CC)cc1 next? 32.6 µM

Entry to check: COC(=O)c1cc(C)ccc1/C=C1\Cc2cccc(C)c2C1=O 61.8 µM

Query CC(=O)c1c2c(cc3c1CC1(C3)Cc3cc4c(c(C(=O)O)c3C1)CCCC4)CCCC2 (centres undefined) (tested in a mixture with another compound) next > 100 µM

And the next one, CC1=NN(C(=O)CC(=O)Nc2ccccc2)C(=O)C1N=Nc1ccc(C(=O)O)cc1 (centres undefined) ? > 100 µM

---

Test system: CAKI-1 renal
MEASUREMENT DESCRIPTION: NCI tumour cell line growth inhibition, 48 h
MEASUREMENT NAME: TGI (µM)
Supply the numeric figure in µM, leaving out any unit text.

Looking for the measured TGI of O=c1c2ccc(Cl)cc2oc2c(CNc3ccc(S(=O)(=O)Nc4nccs4)cc3)cccc12 , can you help? 5.51

Okay, and ClCCn1cnc2c(SCc3ccccc3Cl)ncnc21 ? 24.7

CC1(C)CC[C@]2(C(N)=O)CC[C@]3(C)C(=CC[C@@H]4[C@@]5(C)C/C(=C/c6cccnc6)C(=O)C(C)(C)[C@@H]5CC[C@]43C)[C@@H]2C1 ? 13

---

System: RXF-631 renal
MEASUREMENT DESCRIPTION: NCI tumour cell line growth inhibition, 48 h
MEASUREMENT NAME: TGI

Fill blank: measured TGI of the compound CC1(C)C2CCC13C(=O)C1OC3(C2)C2C(=O)N(c3ccccc3)C(=O)C12 (configuration not stated) is ____. > 100 µM

Entry CCOc1ccc2nc(NC(=O)C(=O)C(C#N)CC(C)(C)C=O)sc2c1 (configuration not stated) please > 100 µM

Likewise for CC(C)(CN1CCCCC1)C(=O)/C=C/c1ccc(Cl)c(Cl)c1 ? 3.72 µM

Another: S=C(Nc1ccccc1)Nc1ccccc1SC(/C=C/NNC1=NC(c2ccccc2)C(c2ccccc2)=NN1)c1ccccc1 (configuration not stated) > 100 µM

Input COc1nc(NC2OCC(OC(C)=O)C(OC(C)=O)C2OC(C)=O)c(-c2csc(N)n2)c(=O)n1C (configuration not stated) > 100 µM

Then this compound: COC(=O)C1=C(C(=O)OC)C2(CCCCCC2=O)OC1=O (configuration not stated) > 100 µM

Subsequent entry: NCCc1ccc2oc3cc(=O)c4ccccc4c-3nc2c1 8.88 µM

---

For each entry below, report its TGI value.
Test system: U251 CNS
MEASUREMENT DESCRIPTION: NCI tumour cell line growth inhibition, 48 h

For COc1nc(Cl)nc(Cl)c1Cl (tested in a mixture with another compound) , what is its reported TGI? 23 µM

Query ClCCn1cnc2c(SCc3ccccc3Cl)ncnc21 next > 89.8 µM

Would you kindly repeat that for O=[N+]([O-])c1ccc2c(c1)C(=NO)c1cc([N+](=O)[O-])ccc1-2 ? > 100 µM

// same read-out, input: Cc1ccc(Cl)cc1-c1nc(N)nc(Nc2ccc(Br)cc2)n1 8.72 µM

Record: N#Cc1c(Br)n(C2OC(CO)C(O)C2O)c2ncn3ccnc3c12 (stereo not given) > 100 µM

Try this compound next: Cc1ccc(S(=O)(=O)NC(C(=O)O)C(C)C)cc1 (stereo not given) > 100 µM

// query: C/C=C/[C@@H](C(=O)OC)N1C(=O)c2ccccc2[C@H]1O > 100 µM

Cool, now [N-]=[N+]=Nc1c(N2CCOCC2)c(Cl)nc2ccccc12 > 100 µM

For CC(=O)OC1Oc2ccccc2-c2oc(=O)c(-c3ccc(F)cc3)cc21 (stereo not given) then? > 100 µM

# repeat for Cn1cc(-c2ccc(-c3cn(C)c4ccc(Cl)cc34)[nH]2)c2cc(Cl)ccc21 1.29 µM

Here is the next compound: O=C(O)c1ccccc1Sc1ccccc1[N+](=O)[O-] > 100 µM

Also check O=CC1=C(C(=O)OC(c2ccccc2)c2ccccc2)N2C(=O)[C@@H](NC(=O)Cc3cccs3)[C@H]2SC1 > 100 µM

Then O=CN/N=C/c1ccc(Cl)c([N+](=O)[O-])c1 ? 25.8 µM

Same read-out for O=C(OCCOC(=O)c1ccc2c(c1)C1(SCCS1)c1ccccc1-2)c1ccc2c(c1)C1(SCCS1)c1ccccc1-2 ? > 100 µM

Check CC(=O)c1cc(I)c(O)c2ncccc12 too. > 10 µM

One more compound: c1ccc([Si](OCCN2CC2)(c2ccccc2)c2ccccc2)cc1 27 µM

Try the compound CC1=NN(C(=O)c2ccc(Cl)cc2)C(=O)C1N=Nc1ccc(S(=O)(=O)Nc2ncccn2)cc1 (stereo not given) > 100 µM

Query Nc1ccc(I)cn1 next > 100 µM

Can you check CN1CCN(C(=S)N(C(=O)c2ccco2)C2CCCCC2)CC1 next? > 100 µM

Query NC1C(O)C(O)C(CO)OC1n1cc(F)c(=O)[nH]c1=O (stereo not given) next > 100 µM

Follow-up entry: Nc1nc(N)c2c(Cl)c(CNc3ccc(C(=O)NC(CC(=O)O)C(=O)O)cc3)ccc2n1 (stereo not given) > 100 µM

Same thing, different compound: CC(C)OC(=O)c1cc(NS(=O)(=O)c2ccc3ccccc3c2)cc(C(=O)OC(C)C)c1 > 100 µM

Further, for C(=C1c2ccccc2-c2ccccc21)c1ccncc1 ? 16 µM

Now consider CC1=C(c2cc(C(=O)Nc3cc(C)ccc3C)nc(N)n2)Sc2ccccc2N1 and answer again. > 100 µM

Also check [N-]=[N+]=NC1C2CC3C4CC5CC3[C@H](C2)C(C5)C41 (stereo not given in full) > 100 µM

Subsequent entry: O=C(c1cccs1)N(C(=S)N1CCN(c2ccccc2)CC1)C1CCCCC1 > 100 µM

Also, O=c1ccc2nc(C(F)(F)F)nn(-c3ccccc3)c-2c1 please. 28.6 µM

Moving on to the next compound: CC1=C2C(=O)c3ccccc3C(=O)[C@H]2C[C@@H](N2CCCC2=O)O1 76.4 µM

// same read-out, input: Cc1nc(N)nn1C1OCC(O)C(O)C1O (stereo not given) > 100 µM

Can you handle CC1(C)CN=C(Nc2ccc(F)cc2)S1 next? > 100 µM

Now consider Cc1cc(N(CCNc2ccnc3cc(Cl)ccc23)Cc2cccs2)nc(Cl)n1 and answer again. 2.28 µM

Same lookup for O=C(CCc1ccc(O)c(O)c1)OCCc1ccccc1 , please. > 100 µM

Moving on to the next compound: CN/N=C(\C)c1c(O)cc(C)oc1=O > 100 µM

For CC1(O)CCC(C(C)(C)O)CC1 (stereo not given) then? > 100 µM

And CN(C)CCCNCc1ccc(-c2ccc(F)c(Cl)c2)o1 ? 30.7 µM

Now try CCCCCCCCCCn1cccc1/C=C/c1ccc(/C=C/c2cccn2CCCCCCCCCC)cc1 . > 100 µM

Try the compound CCOC(=O)c1ccc(NC(=O)O/N=C(/Cl)CC)cc1 34.3 µM

Same for ClC1=C(Cl)C(Cl)(Cl)SS1 > 10 µM

And the next one, OCc1ccc(N(Cc2ccc(F)cc2)CC2CC2)cc1Cl ? 14 µM

Also need c1ccc2c(CC3NCCN3)cccc2c1 , thanks. > 100 µM

Please do the same for COc1cc2c[n+](C)c3c4cc(OC)c(OC)cc4c(OCc4ccccc4)cc3c2cc1OC as well. 1.08 µM

# iterate: COc1cccc(N=Cc2cc(OC)c(OC)c(OC)c2)c1 > 100 µM

Field entry: CC(=O)N(O)CCCCCNC(=O)CCC(=O)N(O)CCCCCNC(=O)CCC(=O)N(O)CCCCCN > 100 µM

And the next one, O=C(N/N=C/c1c(Cl)cccc1Cl)c1cccnc1Nc1cccc(C(F)(F)F)c1 ? 11.6 µM

CC(O)CCc1ccc(Oc2c3ccccc3nc3occc23)cc1 (stereo not given) , same question. 33.8 µM
